Each item that follows carries a reported TGI.
System: HCT-116 colon
assayName: NCI tumour cell line growth inhibition, 48 h

compound: COc1ccc(C2C(C#N)=C(N)Oc3c2sc2c(C)cccc32)cc1 (stereo unspecified)
TGI: 6.96 µM
//
compound: CC#CC#Cc1cccc(=O)o1
TGI: 5.79 µM
//
compound: CC(C)OC(=O)Nc1ccc(-c2nc(-c3cccc(OCCN4CCOCC4)c3)c(-c3ccnc(Br)c3)[nH]2)cc1
TGI: > 100 µM
//
compound: CCOP(=O)(OCC)/C(C#N)=C/c1coc2cc(C)cc(C)c2c1=O
TGI: > 100 µM
//
compound: O=C1OC(c2ccc(O)c(F)c2)(c2ccc(O)c(F)c2)c2cccc3cccc1c23
TGI: > 25 µM
//
compound: COc1ccc(C(=O)Cc2ccc(Cl)cc2)cc1OC
TGI: > 100 µM
